test system: TNF-α; experiment: Cytokine inhibitory activity in cells: LPS-induced TNF-α in RAW 264.7; type: cell-based, murine; conditions: Mus musculus, RAW264.7; RAW 264.7, LPS 1 μg/mL; test conc. 1 mM; read-out: TNF-α Inhibition Rate (%)
Recorded inhibition at 1000 µM for the following molecules
reported-property: inhibition at 1000 µM (%)

INSERT INTO measurements (molecule, reported_property, unit_tag, reading) VALUES
  ('S=C1OCCc2ccncc21 [Ex. 113]', 'inhibition at 1000 µM', '%', 42),
  ('Cc1cc2c(c(-c3ccco3)n1)C(=O)OCC2 [Ex. 27]', 'inhibition at 1000 µM', '%', 81),
  ('Cc1ccc(Nc2nc(C)cc3c2C(=O)OCC3)cc1 [Ex. 39]', 'inhibition at 1000 µM', '%', 40),
  ('Cc1nc(-c2cccs2)cc2c1C(=O)OCC2 [Ex. 97]', 'inhibition at 1000 µM', '%', 100),
  ('Cc1cc2c(c(N3CCCCC3)n1)C(=O)OCC2 [Ex. 32]', 'inhibition at 1000 µM', '%', 100),
  ('Cc1nc(Cl)c2c(c1-c1ccccc1)CCOC2=O [Ex. 61]', 'inhibition at 1000 µM', '%', 100),
  ('C=Cc1cncc2c1CCOC2=O [Ex. 9]', 'inhibition at 1000 µM', '%', 41),
  ('O=C1CCC(N2C(=O)c3ccccc3C2=O)C(=O)N1 (centres unmarked) [Thalidomide, reference compound]', 'inhibition at 1000 µM', '%', 21),
  ('Cc1cc2c(c(Nc3ccc(Cl)cc3)n1)C(=O)OCC2 [Ex. 37]', 'inhibition at 1000 µM', '%', 89),
  ('O=C1OCCc2ccncc21 [Ex. 3, 3,4-dihydro-pyrano[3,4-c]pyridine-1-on]', 'inhibition at 1000 µM', '%', 44),
  ('Cc1cc2c(c(N3CCOCC3)n1)C(=O)OCC2 [Ex. 33]', 'inhibition at 1000 µM', '%', 29),
  ('Cc1cc2c(c(N3CCN(C)CC3)n1)C(=O)OCC2 [Ex. 34]', 'inhibition at 1000 µM', '%', 80),
  ('Cc1cc2c(c(-c3ccccc3)n1)C(=O)OCC2 [Ex. 46]', 'inhibition at 1000 µM', '%', 29),
  ('Cc1nc(-c2ccccc2)cc2c1C(=O)OCC2 [Ex. 77]', 'inhibition at 1000 µM', '%', 100),
  ('Cc1cc2c(c(C)n1)C(=O)OCC2 [Ex. 26]', 'inhibition at 1000 µM', '%', 28),
  ('Cc1cc2c(c(NCc3ccccc3)n1)C(=O)OCC2 [Ex. 51]', 'inhibition at 1000 µM', '%', 30),
  ('Cc1cc2c(c(-c3ccc(F)cc3)n1)C(=O)OCC2 [Ex. 30]', 'inhibition at 1000 µM', '%', 100),
  ('O=C1OCCc2cc(-c3ccccc3)nc(Cl)c21 [Ex. 73]', 'inhibition at 1000 µM', '%', 80),
  ('Cc1cc2c(c(-c3ccc(Cl)cc3)n1)C(=O)OCC2 [Ex. 31]', 'inhibition at 1000 µM', '%', 100),
  ('O=C1OC(c2ccccc2)Cc2ccncc21 (centres unmarked) [Ex. 120a]', 'inhibition at 1000 µM', '%', 85),
  ('Cc1cc2c(cn1)C(=O)OCC2 [Ex. 6]', 'inhibition at 1000 µM', '%', 38),
  ('Cc1cc2c(c(Cl)n1)C(=O)OCC2 [Ex. 20]', 'inhibition at 1000 µM', '%', 41),
  ('Cc1nc(Cl)cc2c1C(=O)OCC2 [Ex. 96]', 'inhibition at 1000 µM', '%', 63);
